experiment description: soluble on expression in E. coli; label from the status in PepcDB or PDB records
experimental readout: soluble on expression in E. coli

1) MSLRVAVGMSGGVDSSVTALLLKEQGHDVIRVTLRFHTVEACEVNETHNVCCSPKDVQDASRVAKRLGIPHLVFSWEEIFKSKVIDYFVEEYKRGRTPNPCALCNREVKTGFFARYLKQVADIDKLATGHYAKIEEDKKYGLVIKRPKDRKRDQTYFLSLVRREDLELLTFPLGAYTKEEVREIAKRYGLEVAQKRDSQEVCFLMGKSPGEYLEGILGKQRGLIKHVSGKVLGEHEGVYRYTIGQRRGLGISYGKPVYVIDIDAKTNTLIVGEEEYLYNDKLLVKEINFHVPLEKWENVSAQIRYRHKPVPVERIEKTEEGFLVKFKEDVRGITPGQVVAFYDGDVLLGGGIIEESVKEGHHHHHH    soluble
2) MIKKIYFGNDHAAYEIKDQIITHLKQKGYQIIDEGAQAALGSVDYSTYALKVANDVVNDTKNDSIGILLCGTGIGMNIAASKVHGTRVALVYNESSAKLAKEHNNANIITIGARENSLNQILKMIDDFLTSKFLGERHQKRLDIIAKYEKEQNS    soluble
3) GIDPFTMLHIEFITDLGAKVTVDVESADKLLDVQRQYGRLGWTSGEVPVGGYQFPLENEPDFDWSLIGARKWTNPEGEEMILHRGHAYRRRELEAVDSRKMKLPAAVKYSRGAKNTDPEHVREKADGEFEYVTLAIFRGGKRQERYAVPGSNRPQAGAPARSAATRAQGARPGAVAVQDEETPF    soluble
